Values compiled from ChEMBL document CHEMBL1133382.

Recorded pKi for the following compounds
Target: Dolichyl-diphosphooligosaccharide--protein glycosyltransferase 48 kDa subunit (UniProt P39656)
Sequence (P39656 whole entry): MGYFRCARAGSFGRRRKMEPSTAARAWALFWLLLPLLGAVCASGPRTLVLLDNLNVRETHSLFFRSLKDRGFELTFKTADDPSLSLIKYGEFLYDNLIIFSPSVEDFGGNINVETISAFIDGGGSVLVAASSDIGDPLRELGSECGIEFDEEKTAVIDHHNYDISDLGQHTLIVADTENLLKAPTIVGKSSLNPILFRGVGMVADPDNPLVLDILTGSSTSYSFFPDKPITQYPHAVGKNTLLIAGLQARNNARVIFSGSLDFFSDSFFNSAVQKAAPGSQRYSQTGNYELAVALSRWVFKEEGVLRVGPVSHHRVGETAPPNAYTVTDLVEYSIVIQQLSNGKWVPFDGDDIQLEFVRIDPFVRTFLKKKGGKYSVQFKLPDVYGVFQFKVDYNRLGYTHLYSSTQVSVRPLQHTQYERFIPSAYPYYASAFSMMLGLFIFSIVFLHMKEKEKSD
Assay: Inhibition of asparagine-linked glycosylation by oligosaccharyl transferase
Residues, ends and D or L forms follow the SMILES beside them.
In textbook form, pKi equals minus log to base ten of the concentration in mol/L.

Past entries and their recorded results:
Compound	pKi
CCCCCCCCCCNCC[C@@H]1NC(=O)CCCCCSC[C@@H](C(=O)N[C@H](C(=O)N[C@H](C(=O)N[C@H](C(=O)N[C@@H](Cc2ccc([N+](=O)[O-])cc2)C(N)=O)[C@@H](C)O)C(C)C)[C@@H](C)O)NC1=O	7.21
CC(C)[C@H](NC(=O)[C@@H](NC(=O)[C@@H]1CSCCCCCC(=O)N[C@@H](CCN)C(=O)N1)[C@@H](C)O)C(=O)N[C@H](C(=O)NCCc1ccccc1)[C@@H](C)O	7.36

Incoming: I'd like to know its pKi. The compound in question is CC(C)[C@H](NC(=O)[C@@H](NC(=O)CNC(=O)[C@H](CCCNCc1ccc([N+](=O)[O-])cc1)NCc1ccccc1)[C@@H](C)O)C(=O)N[C@H](C(N)=O)[C@@H](C)O (HELM PEPTIDE1{[O=C([C@H](CCCNCc1ccc([N+](=O)[O-])cc1)NCc1ccccc1)[*:2]].G.T.V.T.[am]}$$$$V2.0)
Outgoing: 6.81
